Molecular target: recombinant human PDK1 (Homo sapiens, UniProt O15530)
Construct: containing amino acids 51-556 of the human PDK1 enzyme; made in house; host or cells: Sf9 insect cells
Sequence (O15530 51-556): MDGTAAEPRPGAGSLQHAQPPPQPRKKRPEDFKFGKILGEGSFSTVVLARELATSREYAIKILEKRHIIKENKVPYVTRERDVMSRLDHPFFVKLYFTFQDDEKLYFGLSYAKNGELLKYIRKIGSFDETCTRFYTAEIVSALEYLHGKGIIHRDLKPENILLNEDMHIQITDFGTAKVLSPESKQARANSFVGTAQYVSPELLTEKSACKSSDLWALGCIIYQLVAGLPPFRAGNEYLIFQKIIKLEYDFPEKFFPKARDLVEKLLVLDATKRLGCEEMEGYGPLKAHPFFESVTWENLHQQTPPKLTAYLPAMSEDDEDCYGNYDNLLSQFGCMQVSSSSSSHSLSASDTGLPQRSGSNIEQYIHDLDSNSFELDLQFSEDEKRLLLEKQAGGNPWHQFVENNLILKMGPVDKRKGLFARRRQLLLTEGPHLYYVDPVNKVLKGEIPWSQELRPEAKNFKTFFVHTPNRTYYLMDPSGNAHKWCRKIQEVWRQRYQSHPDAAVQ
Assay: PDK1 IMAP fluorescence polarization assay (inhibition of peptide substrate phosphorylation)
Format: biochemical
Details: Table 6; 10 nM PDK1 enzyme, 100 nM peptide substrate, 100 nM PIFtide, 2.5 uM ATP, 1.5 hours
pIC50: −log10 of the molar value.
Entries and their pIC50 values follow.

Past entries and their recorded results:
{"compound": "Cc1cc(-c2c[nH]c(C(=O)Nc3cccc(F)c3N3CCC(C(=O)NC4CCCCC4N)CC3)n2)ccn1 (stereo not shown) [Compound 84]", "pIC50": "6.60 to 7.29"}
{"compound": "CN(C)c1cc(-c2c[nH]c(C(=O)Nc3cccc(F)c3N3CCC(CN)CC3)n2)ccn1 [Compound 36]", "pIC50": "6.00 to 6.60"}
{"compound": "Cc1cc(-c2c[nH]c(C(=O)Nc3cccc(F)c3N3CCC(C(=O)N4CC5CNC(C5)C4)CC3)n2)ccn1 (stereo not shown) [Compound 91]", "pIC50": "6.60 to 7.29"}

Data request, read-out pIC50, for Cc1cc(-c2c[nH]c(C(=O)Nc3cccc(F)c3N3CCC(CN)CC3)n2)nc(N)n1 [Compound 47]
7.30 to 9.00
